Tested on: MOLM-13
Method summary: Anti-proliferative activity against human MOLM-13 cells harboring MLL/AF9 fusion protein assessed as cell growth inhibition measured after 4 days by Cell Titre Glo Luminescent Cell viability assay
Type: functional, cell-based
Condition info: MOLM-13, 96 h
Can you tell me pIC50 for the items I'm about to list?
Answers are plain numbers, as −log10 of the molar value.

These recorded examples may help you get a feel for the data.
Smiles input: C=CC(=O)N1CCC(S(=O)(=O)c2ccc(N3CC(CN4CCC([C@@](CN5CCC5)(c5cccc(F)c5)[C@H]5CCC[C@@H]5NC(=O)OC)CC4)(OC)C3)cc2)CC1
pIC50: 6.23

Smiles input: C=CC(=O)N1C[C@H]2C[C@@H]1CN2S(=O)(=O)c1ccc(N2CC(CN3CCC([C@@](CN4CCC4)(c4cccc(F)c4)[C@H]4CCC[C@@H]4NC(=O)OC)CC3)(OC)C2)cc1
pIC50: 6.30

Smiles input: COC(=O)N[C@H]1CCC[C@@H]1[C@](CN)(c1cccc(F)c1)C1CCN(CC2CN(c3ccc(S(=O)(=O)C4CC4)cc3)C2)CC1
pIC50: 6.26

Smiles input: C=CC(=O)N1CC(S(=O)(=O)c2ccc(N3CC(CN4CCC([C@@](CN5CCC5)(c5cccc(F)c5)[C@H]5CCC[C@@H]5NC(=O)OC)CC4)(OC)C3)cc2)C1
pIC50: 6.40

Smiles input: COC(=O)N[C@H]1CCC[C@@H]1[C@](CN1CCC1)(c1cccc(F)c1)C1CCN(CC2(OC)CN(c3ccc(S(=O)(=O)C4CN(C(=O)/C=C/CN(C)C)C4)cc3)C2)CC1
pIC50: 7.30

Smiles input: C=CC(=O)N1CCC[C@H](S(=O)(=O)c2ccc(N3CC(CN4CCC([C@@](CN5CCC5)(c5cccc(F)c5)[C@H]5CCC[C@@H]5NC(=O)OC)CC4)(OC)C3)cc2)C1
pIC50: 6.71

Exercise: Form entry - test system: MOLM-13; read-out: pIC50; compound: C=CC(=O)N1CCC[C@@H](S(=O)(=O)c2ccc(N3CC(CN4CCC([C@@](CN5CCC5)(c5cccc(F)c5)[C@H]5CCC[C@@H]5NC(=O)OC)CC4)(OC)C3)cc2)C1
Solution: 6.73
